molecular target: HIV-1LAI envelope gp120 (Human immunodeficiency virus type 1 group M subtype B, UniProt P03377); type: binding; settings: Panel E, 9-mers and 12-mers of CD4; empty control 571
Endpoint label: COUNTS of radiolabeled gp120 retained (counts)
Give the value, in units of counts, as a plain number.

Solved cases (3 shown):
KIDIVVLAFQKA :: 689
LQNQKKVEF :: 565
KKEGEQVEFSFP :: 598

Entry under test: KVEFKIDIV . Its COUNTS of radiolabeled gp120 retained was 555

Entry under test: FPLAFTVEKLTG . Its COUNTS of radiolabeled gp120 retained was 622

Entry under test: ASSIVYKKEGEQ . Its COUNTS of radiolabeled gp120 retained was 523

Entry under test: PLAFTVEKLTGS . Its COUNTS of radiolabeled gp120 retained was 528

Entry under test: DIVVLAFQKASS . Its COUNTS of radiolabeled gp120 retained was 746

----------
Recorded measurements of COUNTS of radiolabeled gp120 retained, one per entry
molecular target: HIV-1LAI envelope gp120 (Human immunodeficiency virus type 1 group M subtype B, UniProt P03377); assay type: binding; details: Panel A, 21-mers of CD4; empty control 515 and 617

Solved cases (8 shown):
AFQKASSIVYKKEGEQVEFSF :: 3775 counts
VEFKIDIVVLAFQKASSIVYK :: 725 counts
ASSIVYKKEGEQVEFSFPLAF :: 25146 counts
QVEFSFPLAFTVEKLTGSGEL :: 741 counts
VYKKEGEQVEFSFPLAFTVEK [human CD4 211-231] :: 2429 counts
EFKIDIVVLAFQKASSIVYKK :: 649 counts
LAFTVEKLTGSGELWWQAERA :: 3577 counts
KKEGEQVEFSFPLAFTVEKLT :: 1847 counts

Entry under test: KIDIVVLAFQKASSIVYKKEG . Its COUNTS of radiolabeled gp120 retained was 1394 counts

Entry under test: DIVVLAFQKASSIVYKKEGEQ . Its COUNTS of radiolabeled gp120 retained was 788 counts

Entry under test: FSFPLAFTVEKLTGSGELWWQ . Its COUNTS of radiolabeled gp120 retained was 4163 counts

----------
Recorded measurements of COUNTS of radiolabeled gp120 retained, one per entry
target: HIV-1LAI envelope gp120 (Human immunodeficiency virus type 1 group M subtype B); type: binding; details: Panel D, 9-mers and 12-mers of CD4; empty control […]
Give the value, in units of counts, as a plain number.

Solved cases (8 shown):
IEDSDTYICEVE :: 1107
GLTANSDTHLLQ :: 574
NFPLIIKNL :: 561
LIIKNLKIE :: 515
DQKEEVQLLVFG :: 1624
THLLQGQSLTLT :: 646
EEVQLLVFG :: 3170
LKIEDSDTY :: 492

Entry under test: VEDQKEEVQ . Its COUNTS of radiolabeled gp120 retained was 521

Entry under test: ICEVEDQKEEVQ . Its COUNTS of radiolabeled gp120 retained was 585

Entry under test: NLKIEDSDTYIC . Its COUNTS of radiolabeled gp120 retained was 639

Entry under test: EVEDQKEEVQLL . Its COUNTS of radiolabeled gp120 retained was 508

Entry under test: LLQGQSLTLTLE . Its COUNTS of radiolabeled gp120 retained was 1320
